- Test system: 2008 human ovarian carcinoma cells
- experiment summary: Colony forming assay, effect of EGF on sensitivity to cytotoxic agents
- Assay type: cell-based
- condition description: read-out: IC50 in absence of EGF; cytotoxic agent for 1 h, no EGF
reported endpoint: pIC50
Lab note: report pIC50 as minus log10 of the concentration in molar units, number only.

Inquiry: Sample N.N.[Cl][Pt][Cl] [cisplatin] — what was its pIC50?
Reply text: 5.55

Inquiry: Sample N.N.O=C([O-])C1(C(=O)[O-])CCC1.[Pt+2] [carboplatin] — what was its pIC50?
Reply text: 3.92

###

- Tested on: UMSCC 10b head and neck cancer cells
- experiment summary: Colony forming assay, effect of EGF on cisplatin sensitivity
- Type: cell-based, human
- condition description: read-out: IC50 in presence of EGF; 10 nM EGF and cisplatin concurrently for 1 h
reported endpoint: IC50 (µM)
Value expressed in µM; do not type the unit.

Inquiry: Sample N.N.[Cl][Pt][Cl] [cisplatin] — what was its IC50?
Reply text: 1.76

###

- Test system: MCF-7 breast cancer cells
- experiment summary: Colony forming assay, effect of EGF on cisplatin sensitivity
- Assay type: cell-based, human
- condition description: read-out: IC50 in absence of EGF; cisplatin 1 h, no EGF
reported endpoint: pIC50
Lab note: report pIC50 as minus log10 of the concentration in molar units, number only.

Inquiry: Sample N.N.[Cl][Pt][Cl] [cisplatin] — what was its pIC50?
Reply text: 5.42

###

I'd be grateful if you could share measured IC50 for these entries.
- Test system: 2008 human ovarian carcinoma cells
- experiment summary: Colony forming assay, effect of EGF on sensitivity to cytotoxic agents
- Type: cell-based
- condition description: read-out: IC50 in presence of EGF; EGF and the cytotoxic agent concurrently for 1 h

Inquiry: Notebook: pull reported IC50 for 2008 human ovarian carcinoma cells, entry N.N.[Cl][Pt][Cl] [cisplatin]
Reply text: 0.9 µM

Inquiry: Notebook: pull reported IC50 for 2008 human ovarian carcinoma cells, entry O=c1[nH]cc(F)c(=O)[nH]1 [5-fluorouracil]
Reply text: 11 µM

Inquiry: Notebook: pull reported IC50 for 2008 human ovarian carcinoma cells, entry N.N.O=C([O-])C1(C(=O)[O-])CCC1.[Pt+2] [carboplatin]
Reply text: 67 µM

Inquiry: Notebook: pull reported IC50 for 2008 human ovarian carcinoma cells, entry COc1cccc2c1C(=O)c1c(O)c3c(c(O)c1C2=O)C[C@@](O)(C(=O)CO)C[C@@H]3O[C@H]1C[C@H](N)[C@H](O)[C@H](C)O1 [doxorubicin]
Reply text: 1.4 µM

###

- System: 2008 human ovarian carcinoma cells
- experiment summary: Colony forming assay, effect of EGF on sensitivity to cytotoxic agents
- Type: cell-based
- condition description: Homo sapiens, Ovarian carcinoma cell, 1 h, read-out: IC50 in absence of EGF
I'd be grateful if you could share measured pIC50 for these entries.
Lab note: report pIC50 as minus log10 of the concentration in molar units, number only.

Inquiry: Sample O=c1[nH]cc(F)c(=O)[nH]1 [5-fluorouracil] — what was its pIC50?
Reply text: 4.70

Inquiry: Sample COc1cccc2c1C(=O)c1c(O)c3c(c(O)c1C2=O)C[C@@](O)(C(=O)CO)C[C@@H]3O[C@H]1C[C@H](N)[C@H](O)[C@H](C)O1 [doxorubicin] — what was its pIC50?
Reply text: 5.82

Inquiry: Sample CC(=O)O[C@H]1C(=O)[C@@]2(C)[C@H]([C@H](OC(=O)c3ccccc3)[C@]3(O)C[C@H](OC(=O)[C@H](O)[C@@H](NC(=O)c4ccccc4)c4ccccc4)C(C)=C1C3(C)C)[C@]1(OC(C)=O)CO[C@@H]1C[C@@H]2O [taxol] — what was its pIC50?
Reply text: 8.00

Inquiry: Sample N[C@@H](Cc1ccc(N(CCCl)CCCl)cc1)C(=O)O [melphalan] — what was its pIC50?
Reply text: 4.92
